Each recorded value in this set is attributed to the NTF2 design screens of Basanta et al. (2020).

# assay.overview: protease stability score; higher = more stable; yeast display proteolysis, trypsin and chymotrypsin;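 also: relative to predicted unfolded state with 0 unfolded-like and 1 meaning tenfold more protease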
experimental.readout: protease stability score
Hey, just send me the number, nothing else.

Worked cases, protease stability score given:
SEDEKVVKWASDVLLDYIRTGDWRSLEELIDPHARHDVNGVEIIGMEHILKHFMELRRRIDHIHLRVHHIRVFDGQIDLNGKLHVNINGREIELDTRVIALKVNGRWVNHIISIG; 1.44
DRRQEELRRMAEIWIHNELTGNEDEFRKLADPNVRFHLHVNGRVLSSHGMETLVKLFRELLEEWRIKEIHIHDMHIQGDKVHLEGRRRGTIGDKEDIYEVEIHVVIVNGKMKEITVIIK; 1.51
EEEERILFEEMEHLLHNFLTGNEEHLHELIDPRVRILIGDKDIHGMELHANIWKKVKGIKEEYHVHRVKLYNGRNEMDTEVRRVIDGQELSVRTKIIFDVVDGKLKSAEIRFH; 0.771
SEDDKVVEEIARLWLHWVLTGDEEHLRELLDPHVRLHIDGRTYIGREEFLHKFHELRIHRFELKSIHVIGDKAQVDGHQDYKYNGKRIHLDTKVDLVVVDGVMHEIHIHLK; 1.78
DEEERHTHEWFKELLHNLQTGDEDRFRQMADPNVQILVDGVEYIGREHAAHWMIIHIRHLRIEHEHDEEIRVFDGRIDVRHIRVGSYGDKRTDTRVHIDVNIIDGRIKFLRIHYS; 0.869
SEDHENLRKSLEFFKHVVDTGDFRKLLQLADPNTRIIINGQTVHGMELTQKIWIHQFREAGHTRIHIRIEDIDVQGDKIQIDGKLDINGQERDTNLFIEKVNGRWIIRSIEFQ; 1.38

Challenge: Item under review: `DEEESIERELSRRWLHWFITGDEERAKKLADPRARYHQGDKEIHGWDNLRKFLFEILEKIPNLRIIIRDSDVINGRIHYDTELHIDGVHIKTHLIIVIVDGRLKELHVEEH` . Reported protease stability score?
Response given: 0.06

Challenge: Please answer likewise for `DEEEEEWERIARRLVKAWLTGDEDLLSFLADPHVRLHVGDKHNHGREHVERHWKEYLDRVKNVRIHVHHVEIQGEKIIIHVEVEINGRTFNMRVIIIVINGRIKEIVIHIH`
Response given: 0.635

Challenge: Try this sequence too: `TEHRHLIEQHLRDLQHDMRTGDEDNLHKLADPHVRVDIDGRQLHGREAWSKTMFELRTDIRVDRFDVQGNKIHIEGHLIEHFDGRTINMRVHIIWFKVDGRWLIHEVRIE`
Response given: 1.22

Challenge: Also need `SEEEELAVKMWEIWLRSFLTGDETRLDQMMDPHAKLERIINGKRQHTHGWENVLKELIRLADELRVEHIHIRSEHRQGEKLDVKGEIDGDINGVRRRVEVDIHLVIVDGRIRHVKEVIR` , thanks.
Response given: 1.12

Challenge: Also, `SEEHRQILHVMHLILELWMTGDEETLYHLADPNVRLLIDGREYHGREQIRKVWEDHHRRADHVDFRLKRFELFENHAHVHGEFIIVVNGVEFRHETELELHVVNGRVKEHNLRIK` please.
Response given: 1.35
